Reference source: paper PMC9091336

- System: PyasOBP2
- Assay Comment: Fluorescence competitive binding assay with 1-NPN as probe
- Set-up: species or system Pachyrhinus yasumatsui
- Setup Conditions: fluorescence competitive binding, ligand up to 20 μM
Property Name: binding to PyasOBP2 (in words)

CCCCCCCC/C=C\CCCCCCCC(=O)OC [Methyl oleate]    could not bind
CCCCCCCCCCCCCCCC(=O)OC [Methyl palmitate]    could not bind
CC(C)=CCC/C(C)=C/CC/C(C)=C/CC/C=C(\C)CC/C=C(\C)CCC=C(C)C [Squalene]    could not bind

###

- Tested Target: PyasOBP2
- Assay Comment: Fluorescence competitive binding assay with 1-NPN as probe
- Parameters: species or system Pachyrhinus yasumatsui
- Setup Conditions: dissociation constant calculated from IC50 by Ki=IC50/(1+[1-NPN]/K1-NPN); PyasOBP2 2 μM, 1-NPN 2 μM; listed as nerolidol
- Protocol: Fluorescence competitive binding assays were carried out on an F-2700 fluorescence spectrophotometer (Hitachi, Tokyo, Japan) to determine the binding affinity of PyasOBP2. 1-N-phenyl-naphthylamine (1-NPN) was used as a fluorescent probe ([Pelosi et al., 2006]) with excitation at 337 nm, and the emission spectra were measured from 370 to 550 nm. […]
pKi: −log10 of the molar value.
Property Name: pKi

So what's the measured pKi for this one? C=CC(C)(O)CCC=C(C)CCC=C(C)C (mixture of isomers) [Nerolidol]
> 5.00
